Reported viability, T/C by item:
Test system: MDA-MB-468 multi-cell spheroids, viability
protocol details: Anticancer human tumor MDA-MB-468 cell line growth inhibition [IpAb]
measurement setup: second compound 10 µM; first compound 3.16 µM; stronger effect = lower value
# value in %; strip the unit string

Worked set:
Short answer on MDA-MB-468 multi-cell spheroids, viability for Cn1ncc(Cl)c1-c1cc(C(=O)NC(CN)Cc2cccc(F)c2)sc1Cl (configuration not stated) + CC(C)NCC(C(=O)N1CCN(c2ncnc3c2C(C)CC3O)CC1)c1ccc(Cl)cc1 , viability, T/C: 1.85

Short answer on MDA-MB-468 multi-cell spheroids, viability for Cn1nccc1Nc1nccc(-c2ccn(C(CO)c3ccc(Cl)c(F)c3)c(=O)c2)n1 (configuration not stated) + CC(C)NCC(C(=O)N1CCN(c2ncnc3c2C(C)CC3O)CC1)c1ccc(Cl)cc1 , viability, T/C: 1.96

Short answer on MDA-MB-468 multi-cell spheroids, viability for C=CCn1c(=O)c2cnc(Nc3ccc(N4CCN(C)CC4)cc3)nc2n1-c1cccc(C(C)(C)O)n1 + CC(C)NCC(C(=O)N1CCN(c2ncnc3c2C(C)CC3O)CC1)c1ccc(Cl)cc1 , viability, T/C: 2.55

Short answer on MDA-MB-468 multi-cell spheroids, viability for Cc1nc(NC(=O)N2CCCC2C(N)=O)sc1-c1ccnc(C(C)(C)C(F)(F)F)c1 (configuration not stated) + CC(C)NCC(C(=O)N1CCN(c2ncnc3c2C(C)CC3O)CC1)c1ccc(Cl)cc1 , viability, T/C: 7.57

Short answer on MDA-MB-468 multi-cell spheroids, viability for C=CC(=O)N1CCN(c2nc(=O)n(-c3c(C)ccnc3C(C)C)c3nc(-c4c(O)cccc4F)c(F)cc23)C(C)C1 (configuration not stated) + CC(C)NCC(C(=O)N1CCN(c2ncnc3c2C(C)CC3O)CC1)c1ccc(Cl)cc1 , viability, T/C: 13.8

---
Short answer on MDA-MB-468 multi-cell spheroids, viability for CCCS(=O)(=O)Nc1ccc(F)c(C(=O)c2c[nH]c3ncc(-c4ccc(Cl)cc4)cc23)c1F + CC(C)NCC(C(=O)N1CCN(c2ncnc3c2C(C)CC3O)CC1)c1ccc(Cl)cc1 , viability, T/C: 13.7

Short answer on MDA-MB-468 multi-cell spheroids, viability for CC1(C)CCC(CN2CCN(c3ccc(C(=O)NS(=O)(=O)c4ccc(NCC5CCOCC5)c([N+](=O)[O-])c4)c(Oc4cnc5[nH]ccc5c4)c3)CC2)=C(c2ccc(Cl)cc2)C1 + CC(C)NCC(C(=O)N1CCN(c2ncnc3c2C(C)CC3O)CC1)c1ccc(Cl)cc1 , viability, T/C: 9.97

====

Tested on: MDA-MB-468 multi-cell spheroids, viability
protocol details: Anticancer human tumor MDA-MB-468 cell line growth inhibition [IpAb]; active = viability on the fitted dose curve at most 10% of control; inactive = the rest;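 further: spheroids exposed to agents for seven days; 100% = DMSO vehicle control viability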
measurement setup: second compound 0.0316 µM; first compound 1 µM
Bench note: report the call from Y (active), N (inactive)

**Query** Per the assay record, what outcome was assigned to C=CCn1c(=O)c2cnc(Nc3ccc(N4CCN(C)CC4)cc3)nc2n1-c1cccc(C(C)(C)O)n1 + CCN1CCN(Cc2ccc(Nc3ncc(F)c(-c4cc(F)c5nc(C)n(C(C)C)c5c4)n3)nc2)CC1 ?
**Result** Y

**Query** Per the assay record, what outcome was assigned to CC1(C)CCC(CN2CCN(c3ccc(C(=O)NS(=O)(=O)c4ccc(NCC5CCOCC5)c([N+](=O)[O-])c4)c(Oc4cnc5[nH]ccc5c4)c3)CC2)=C(c2ccc(Cl)cc2)C1 + CCN1CCN(Cc2ccc(Nc3ncc(F)c(-c4cc(F)c5nc(C)n(C(C)C)c5c4)n3)nc2)CC1 ?
**Result** N

**Query** Per the assay record, what outcome was assigned to CCCS(=O)(=O)Nc1ccc(F)c(C(=O)c2c[nH]c3ncc(-c4ccc(Cl)cc4)cc23)c1F + CCN1CCN(Cc2ccc(Nc3ncc(F)c(-c4cc(F)c5nc(C)n(C(C)C)c5c4)n3)nc2)CC1 ?
**Result** N

**Query** Per the assay record, what outcome was assigned to Cc1nc(NC(=O)N2CCCC2C(N)=O)sc1-c1ccnc(C(C)(C)C(F)(F)F)c1 (stereo not given) + CCN1CCN(Cc2ccc(Nc3ncc(F)c(-c4cc(F)c5nc(C)n(C(C)C)c5c4)n3)nc2)CC1 ?
**Result** N

# next compound below
**Query** Per the assay record, what outcome was assigned to Cn1nccc1Nc1nccc(-c2ccn(C(CO)c3ccc(Cl)c(F)c3)c(=O)c2)n1 (stereo not given) + CCN1CCN(Cc2ccc(Nc3ncc(F)c(-c4cc(F)c5nc(C)n(C(C)C)c5c4)n3)nc2)CC1 ?
**Result** N

====

System: MDA-MB-468 multi-cell spheroids, viability
protocol details: Anticancer human tumor MDA-MB-468 cell line growth inhibition [IpAb]; active means viability on the fitted dose curve at most 10% of control; inactive means the rest;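 further: spheroids exposed to agents for seven days; 100% = DMSO vehicle control viability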
measurement setup: second compound 0.316 µM; first compound 10 µM
Bench note: report the call from 1 (yes) (active), 0 (no) (inactive)

**Query** Per the assay record, what outcome was assigned to Cn1ncc(Cl)c1-c1cc(C(=O)NC(CN)Cc2cccc(F)c2)sc1Cl (stereo not given) + CCN1CCN(Cc2ccc(Nc3ncc(F)c(-c4cc(F)c5nc(C)n(C(C)C)c5c4)n3)nc2)CC1 ?
**Result** 1 (yes)

**Query** Per the assay record, what outcome was assigned to Cn1ncc(Cl)c1-c1cc(C(=O)NC(CN)Cc2cccc(F)c2)sc1Cl (stereo not given) + CC(C)NCC(C(=O)N1CCN(c2ncnc3c2C(C)CC3O)CC1)c1ccc(Cl)cc1 ?
**Result** 1 (yes)

**Query** Per the assay record, what outcome was assigned to C=CCn1c(=O)c2cnc(Nc3ccc(N4CCN(C)CC4)cc3)nc2n1-c1cccc(C(C)(C)O)n1 + CCN1CCN(Cc2ccc(Nc3ncc(F)c(-c4cc(F)c5nc(C)n(C(C)C)c5c4)n3)nc2)CC1 ?
**Result** 1 (yes)

**Query** Per the assay record, what outcome was assigned to C=CC(=O)N1CCN(c2nc(=O)n(-c3c(C)ccnc3C(C)C)c3nc(-c4c(O)cccc4F)c(F)cc23)C(C)C1 (stereo not given) + CC(C)NCC(C(=O)N1CCN(c2ncnc3c2C(C)CC3O)CC1)c1ccc(Cl)cc1 ?
**Result** 0 (no)

**Query** Per the assay record, what outcome was assigned to CC1(C)CCC(CN2CCN(c3ccc(C(=O)NS(=O)(=O)c4ccc(NCC5CCOCC5)c([N+](=O)[O-])c4)c(Oc4cnc5[nH]ccc5c4)c3)CC2)=C(c2ccc(Cl)cc2)C1 + CC(C)NCC(C(=O)N1CCN(c2ncnc3c2C(C)CC3O)CC1)c1ccc(Cl)cc1 ?
**Result** 1 (yes)

---
**Query** Per the assay record, what outcome was assigned to Cn1nccc1Nc1nccc(-c2ccn(C(CO)c3ccc(Cl)c(F)c3)c(=O)c2)n1 (stereo not given) + CC(C)NCC(C(=O)N1CCN(c2ncnc3c2C(C)CC3O)CC1)c1ccc(Cl)cc1 ?
**Result** 1 (yes)

**Query** Per the assay record, what outcome was assigned to Cc1nc(NC(=O)N2CCCC2C(N)=O)sc1-c1ccnc(C(C)(C)C(F)(F)F)c1 (stereo not given) + CCN1CCN(Cc2ccc(Nc3ncc(F)c(-c4cc(F)c5nc(C)n(C(C)C)c5c4)n3)nc2)CC1 ?
**Result** 0 (no)

====

Tested on: MDA-MB-468 multi-cell spheroids, viability
protocol details: Anticancer human tumor MDA-MB-468 cell line growth inhibition [IpAb];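 further: spheroids exposed to agents for seven days; 100% = DMSO vehicle control viability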
measurement setup: second compound 0.01 µM; first compound 0.316 µM; stronger effect = lower value
We label by threshold. Values of viability, T/C strictly beneath 80% are criterion met. Values of 80% and up are criterion not met.

**Query** Please check: viability, T/C for C=CC(=O)N1CCN(c2nc(=O)n(-c3c(C)ccnc3C(C)C)c3nc(-c4c(O)cccc4F)c(F)cc23)C(C)C1 (stereo not drawn) + CCN1CCN(Cc2ccc(Nc3ncc(F)c(-c4cc(F)c5nc(C)n(C(C)C)c5c4)n3)nc2)CC1 , strictly under 80% or not?
**Result** criterion not met

---
**Query** Please check: viability, T/C for C=CCn1c(=O)c2cnc(Nc3ccc(N4CCN(C)CC4)cc3)nc2n1-c1cccc(C(C)(C)O)n1 + CCN1CCN(Cc2ccc(Nc3ncc(F)c(-c4cc(F)c5nc(C)n(C(C)C)c5c4)n3)nc2)CC1 , strictly under 80% or not?
**Result** criterion met

**Query** Please check: viability, T/C for CC1(C)CCC(CN2CCN(c3ccc(C(=O)NS(=O)(=O)c4ccc(NCC5CCOCC5)c([N+](=O)[O-])c4)c(Oc4cnc5[nH]ccc5c4)c3)CC2)=C(c2ccc(Cl)cc2)C1 + CCN1CCN(Cc2ccc(Nc3ncc(F)c(-c4cc(F)c5nc(C)n(C(C)C)c5c4)n3)nc2)CC1 , strictly under 80% or not?
**Result** criterion not met

====

Reported viability, T/C by item:
Tested on: MDA-MB-468 multi-cell spheroids, viability
protocol details: Anticancer human tumor MDA-MB-468 cell line growth inhibition [IpAb];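 further: spheroids exposed to agents for seven days; 100% = DMSO vehicle control viability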
measurement setup: second compound 3.16 µM; first compound 0.1 µM; stronger effect = lower value
# value in %; strip the unit string

Short answer on MDA-MB-468 multi-cell spheroids, viability for Cn1ncc(Cl)c1-c1cc(C(=O)NC(CN)Cc2cccc(F)c2)sc1Cl (stereo not given) + CC(C)NCC(C(=O)N1CCN(c2ncnc3c2C(C)CC3O)CC1)c1ccc(Cl)cc1 , viability, T/C: 36.1

Short answer on MDA-MB-468 multi-cell spheroids, viability for COc1c(OCCCN2CCOCC2)ccc2c3n(c(=NC(=O)c4cnc(N)nc4)nc12)CCN3 + CC(C)NCC(C(=O)N1CCN(c2ncnc3c2C(C)CC3O)CC1)c1ccc(Cl)cc1 , viability, T/C: 19.1

Short answer on MDA-MB-468 multi-cell spheroids, viability for CCCS(=O)(=O)Nc1ccc(F)c(C(=O)c2c[nH]c3ncc(-c4ccc(Cl)cc4)cc23)c1F + CC(C)NCC(C(=O)N1CCN(c2ncnc3c2C(C)CC3O)CC1)c1ccc(Cl)cc1 , viability, T/C: 34.1

Short answer on MDA-MB-468 multi-cell spheroids, viability for CC1(C)CCC(CN2CCN(c3ccc(C(=O)NS(=O)(=O)c4ccc(NCC5CCOCC5)c([N+](=O)[O-])c4)c(Oc4cnc5[nH]ccc5c4)c3)CC2)=C(c2ccc(Cl)cc2)C1 + CC(C)NCC(C(=O)N1CCN(c2ncnc3c2C(C)CC3O)CC1)c1ccc(Cl)cc1 , viability, T/C: 37.7

// next item, viability, T/C requested
Short answer on MDA-MB-468 multi-cell spheroids, viability for C=CCn1c(=O)c2cnc(Nc3ccc(N4CCN(C)CC4)cc3)nc2n1-c1cccc(C(C)(C)O)n1 + CC(C)NCC(C(=O)N1CCN(c2ncnc3c2C(C)CC3O)CC1)c1ccc(Cl)cc1 , viability, T/C: 27.2
